Provide the reported remaining at 1 h of each item.
experiment notes: Stability assessed as compound peak area at pH 4 after 1 hr by HPLC-PDA method
Format: physicochemical
condition set: read-out: Stability
Return type: number; implicit unit %.

(Q) Data request, read-out remaining at 1 h, for Oc1cccc(CNc2ncnc3c2ncn3C2CCCO2)c1 (configuration not stated)
(A) 97.2

(Q) Another compound: Oc1cccc(CNc2ncnc3c2ncn3C2CCCCO2)c1 (configuration not stated)
(A) 99.5

====

Tested on: BJ
experiment notes: Cytotoxicity against human BJ cells after 72 hrs by MTT assay
Format: ADME, cell-based
pIC50: −log10 of the molar value.
What pIC50 was measured for each of the following?

(Q) API: value(readout= pIC50, system= BJ, query= COc1ccccc1CNc1ncnc2c1ncn2C1CCCO1 (stereo unspecified) )
(A) < 4.00

(Q) Entry to check: COc1cc(CNc2ncnc3c2ncn3C2CCCCO2)cc(OC)c1OC (stereo unspecified)
(A) < 4.00

(Q) Please answer likewise for COc1cc(CNc2ncnc3c2ncn3C2CCCO2)cc(OC)c1 (stereo unspecified)
(A) < 4.00

(Q) # iterate: COc1ccc(CNc2ncnc3c2ncn3C2CCCO2)c(OC)c1 (stereo unspecified)
(A) < 4.00

(Q) Next up: COc1cccc(CNc2ncnc3c2ncn3C2CCCCO2)c1 (stereo unspecified)
(A) < 4.00

(Q) Quick one: Oc1cccc(CNc2ncnc3c2ncn3C2CCCO2)c1 (stereo unspecified)
(A) < 4.00
